Conditions: 30 °C
readout name: solubility (mM)

smiles_repr=COCCOc1c(OC)cc(Cc2cnc(N)nc2N)cc1OC readout_name=solubility numeric_value=7.93
smiles_repr=Nc1ccc(S(=O)(=O)NC(=O)c2ccccc2)cc1 readout_name=solubility numeric_value=1.12

---

Details: 26 °C
readout name: solubility

smiles_repr=O=C(O)CCSCCC(=O)O result="209 mM"

---

solubility values for the compounds below.
readout name: solubility (mM)

compound=CC1(C)[C@H]2CC[C@]1(C)C(=O)[C@H]2O value_units=mM numeric_value=119
compound=Nc1nc(N)c(O[C@@H]2O[C@H](CO)[C@@H](O)[C@H](O)[C@H]2O)c(=O)[nH]1 value_units=mM numeric_value=32.9
compound=CC(C)(C)OOC(C)(C)C value_units=mM numeric_value=0.684
compound=CCN(CC)C(=O)CC(C)C value_units=mM numeric_value=254
compound=CNC(=S)NCO value_units=mM numeric_value=832
compound=NC(=O)N(CCO)/N=C/c1ccc([N+](=O)[O-])o1 value_units=mM numeric_value=2.06
compound=Cn1ccc(=O)c2ccccc21 value_units=mM numeric_value=104
compound=Nc1ccc(S(=O)(=O)O)c2cc(S(=O)(=O)O)ccc12 value_units=mM numeric_value=551
compound=Nc1nc(N)c(O)c(O)n1 value_units=mM numeric_value=20.1
compound="CC(=O)C1CCOC1=O (centres undefined)" value_units=mM numeric_value=1560
compound="C=C[C@H]1C[N@@]2CC[C@H]1C[C@H]2C12Nc3ccccc3C1(O)CCO2 (some centres undefined)" value_units=mM numeric_value=2.14
compound="O=C[C@H](O)C(O)[C@H](O)CO (stereo in doubt)" value_units=mM numeric_value=3700
compound=CCN(CC)C(=O)CSc1ccc(Cl)nn1 value_units=mM numeric_value=19.2
compound=Cc1csc(NS(=O)(=O)c2ccc(N)cc2)n1 value_units=mM numeric_value=7.43

---

log10(solubility) values for the compounds below.
Conditions: 20 °C
readout name: log10(solubility) (log10 of the value in mM)

compound=Cc1ccc(C(C)C)c(O)c1C(=O)O numeric_value=-0.29
compound="CC(C)(C)C(O)C(Oc1ccc(Cl)cc1)n1cncn1 (stereo unspecified)" numeric_value=-0.39
compound=CC(=O)N(C)N(C(=O)C(=O)N(C)C)c1ccccc1 numeric_value=2.47
compound=N=C(NCCCCCCNC(=N)NC(=N)Nc1ccc(Cl)cc1)NC(=N)Nc1ccc(Cl)cc1 numeric_value=0.20
compound=CCCOc1ccc([N+](=O)[O-])cc1N numeric_value=-0.16
compound="CC(N)c1ccccc1 (stereo unspecified)" numeric_value=2.54
compound=C[C@H](O)[C@@H](O)c1cnc2[nH]c(N)nc(=O)c2n1 numeric_value=0.47
compound=CCSc1nnc(C(C)(C)C)c(=O)n1N numeric_value=0.26
compound=CC(=O)N(O)CCCCCNC(=O)CCC(=O)N(O)CCCCCNC(=O)CCC(=O)N(O)CCCCCN numeric_value=1.33
compound=CC(O)(P(=O)(O)O)P(=O)(O)O numeric_value=3.53
compound=Clc1ncnc2[nH]cnc12 numeric_value=1.51

---

Conditions: 25 °C
log10 of solubility values for the compounds below.
readout name: log10 of solubility (log10 of the value in mM)

compound=Nc1ncnc2c1ncn2[C@]1(CO)O[C@H](CO)[C@@H](O)[C@H]1O numeric_value=1.43
compound=C#CC1(OC(N)=O)CCCCC1 numeric_value=1.18
compound=NC(=S)Nc1cccc2ccccc12 numeric_value=0.47
compound=Cn1c([N+](=O)[O-])cnc1COC(N)=O numeric_value=1.16
compound=C[C@@H]1C(=O)OC[C@H]2[C@@H]1CC[C@@H]2C numeric_value=1.08
compound=O=[N+]([O-])c1ccc(C=NO)o1 numeric_value=0.81
compound="CC(=O)Nc1c(I)c(C(=O)N[C@H]2C(O)O[C@H](CO)[C@@H](O)[C@@H]2O)c(I)c(N(C)C(C)=O)c1I (some centres not stated)" numeric_value=2.80
compound=Oc1c(Cl)cc(Cl)cc1Sc1cc(Cl)cc(Cl)c1O numeric_value=-1.95
compound="CCC(O)(COC(N)=O)c1ccccc1 (configuration not stated)" numeric_value=2.08
compound=O=C(C(=O)c1cc([N+](=O)[O-])ccc1O)c1cc([N+](=O)[O-])ccc1O numeric_value=-0.52
compound=Cc1cc(O)c(C(C)C)cc1Cl numeric_value=0.73
compound=C[C@](N)(Cc1ccc(O)c(O)c1)C(=O)O numeric_value=1.67

---

solubility values for the molecules below.
Details: 25 °C
readout name: solubility (mM)

molecule=O=C(CCCN1CCC(O)(c2ccc(Cl)cc2)CC1)c1ccc(F)cc1 readout_name=solubility numeric_value=0.0372
molecule=C=C(C)C(=O)C(=CC(=O)O)OC readout_name=solubility numeric_value=118
molecule=O=C(c1ccc(F)cc1)C1CCN(CCn2c(=O)[nH]c3ccccc3c2=O)CC1 readout_name=solubility numeric_value=0.0253
molecule=O=c1[nH]c(=O)n([C@H]2C[C@H](O)[C@@H](CO)O2)cc1I readout_name=solubility numeric_value=5.65
molecule=NC(=O)c1cccnc1 readout_name=solubility numeric_value=4090
molecule=O=C(OC(=O)c1ccccc1)c1ccccc1 readout_name=solubility numeric_value=0.0442
molecule="Cn1c(=O)c2c(ncn2CC(O)CO)n(C)c1=O (stereo not given)" readout_name=solubility numeric_value=1310
molecule=CNC[C@H](O)[C@@H](O)[C@H](O)[C@H](O)CO readout_name=solubility numeric_value=3620
molecule=NC1(C(=O)O)CCCC1 readout_name=solubility numeric_value=387
molecule=O=C1CCC(=O)N1Cl readout_name=solubility numeric_value=107

---

solubility values for the compounds below.
readout name: solubility (mM)

compound=CCCCN(CCN(CCCC)C(=O)N1CCOCC1)C(=O)N1CCOCC1 readout_name=solubility numeric_value=1250
compound=COc1c2c(cc3oc(=O)ccc13)OC(C)(C)C=C2 readout_name=solubility numeric_value=0.155
compound=CC(=O)c1ccc(O)c(O)c1O readout_name=solubility numeric_value=9.51
compound="CCC(C)C1(CC)C(=O)N=C([O-])NC1=O.[Na+] (configuration not stated)" readout_name=solubility numeric_value=1420
compound=Cc1cc(O)c(Cl)c(C)c1Cl readout_name=solubility numeric_value=1.05
compound=O=S(=O)([O-])CS(=O)(=O)[O-].[Ca+2] readout_name=solubility numeric_value=1340
compound=O=C1NCCN1/N=C/c1ccc([N+](=O)[O-])o1 readout_name=solubility numeric_value=0.439

---

Conditions: pH 5.5
readout name: solubility (µM)

smiles_repr=Cc1cnc(NS(=O)(=O)c2ccc(N)cc2)nc1 numeric_value=1510

---

solubility values for the compounds below.
Conditions: 27 °C
readout name: solubility (mM)

smiles_repr=O=C(O)/C=C\C(=O)Nc1ccccc1 numeric_value=5.23
smiles_repr=NC(=S)NC(N)=S numeric_value=20

---

Conditions: 25 °C
Returns Y if the recorded solubility is greater than or equal to 70 mM, and N otherwise.

compound="C/C=C\\C(=O)OC1C[C@H]2O[C@@H]3C=C(C)C(=O)C[C@]3(C)[C@]1(C)C21CO1 (stereo partly drawn)" class=N
compound=CCCOC(=O)c1cc(O)c(O)c(O)c1 class=N
compound=C=C(C)Cn1c(N)cc(=O)n(C)c1=O class=Y
compound=COc1cc([C@@H]2c3cc4c(cc3[C@H](O)[C@H]3COC(=O)[C@@H]23)OCO4)cc(OC)c1OC class=N
compound=NS(=O)(=O)c1cc2c(cc1C(F)(F)F)NC=NS2(=O)=O class=Y
compound=CO[C@H]1O[C@H](CNC(=O)N(CCCl)N=O)[C@@H](O)[C@H](O)[C@H]1O class=N
compound=C[C@H]1O[C@H](O[C@H]2CC[C@H](n3ccc(NC(=O)c4ccc(NC(=O)[C@@](C)(N)CO)cc4)nc3=O)O[C@@H]2C)[C@H](O)[C@@H](O)[C@@H]1N(C)C class=N
compound=S=P(N1CC1)(N1CC1)N1CC1 class=Y
compound=O=C1C(Br)=CC(=NCl)C=C1Br class=N
compound=O=CNc1ccccc1 class=Y
compound=CO[C@H]1[C@H](O)[C@H](O[C@H]2CC[C@@]3(C=O)[C@H](CC[C@@H]4[C@@H]3CC[C@]3(C)[C@@H](C5=CC(=O)OC5)CC[C@]43O)C2)O[C@@H](C)[C@@H]1O class=N
compound="CN1C(=O)CCS(=O)(=O)C1c1ccc(Cl)cc1 (stereo not drawn)" class=N
compound=CC1(C)CC(=O)CC(=O)C1 class=N
compound=OCc1cc(Br)ccc1O class=Y
compound=O=C(O)[C@H](O)[C@@H](O)[C@H](O)[C@H](O)CO class=Y
compound=NC(=O)c1cnccn1 class=Y
compound="CCCC(C)(COC(N)=O)COC(=O)NC(C)C (stereo not drawn)" class=N
compound="NC(Cc1cc(Br)c(O)c(Br)c1)C(=O)O (stereo in doubt)" class=N
compound=CCCn1cnc2c1c(=O)n(CCCCC(C)=O)c(=O)n2C class=Y
compound=O=C1CN=C(c2ccccc2Cl)c2cc([N+](=O)[O-])ccc2N1 class=N
compound=CN1CCN(C(c2ccccc2)c2ccccc2)CC1 class=N
compound="O=C1OC(CN2CCOCC2)CN1N=Cc1ccc([N+](=O)[O-])o1 (stereo not drawn)" class=N
